# credit: PubChem BioAssay AID2060506

tested on: 598228-144-R-J1-PDC complex spheroid viability; test: Anticancer human tumor 598228-144-R-J1-PDC patient-derived serous endometrial adenocarcinoma cell line growth inhibition [GQUAD]; conditions: second compound 3.16 µM; first compound 0.1 µM; stronger effect = lower value;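 also: spheroids exposed to the agents for one week before reading; percent of vehicle DMSO control viability so 100% = untreated growth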
The label 1 (yes) is reserved for viability, T/C strictly under 50%; 0 (no) covers values equal to or above it.

{"columns": ["COMPOUND", "LABEL_VALUE"],
 "data": [
  ["COc1ccc([C@@H](O)c2cc(-c3ncnc4cc(N5CCOCC5)ccc34)c(F)cc2Cl)nn1 + Cc1cnc(CNC(=O)c2c(=O)c3ccc(N4CCCN(C)CC4)nc3n3c2sc2ccccc23)cn1", "1 (yes)"],
  ["CC1COCCN1c1cc(-c2ccnn2C)c2ccnc(-c3ccn[nH]3)c2n1 (configuration not stated) + Cc1cnc(CNC(=O)c2c(=O)c3ccc(N4CCCN(C)CC4)nc3n3c2sc2ccccc23)cn1", "1 (yes)"],
  ["COc1cccc2c1C(=O)c1c(O)c3c(c(O)c1C2=O)CC(O)(C(=O)CO)CC3OC1CC(N)C(O)C(C)O1 (configuration not stated) + CN(C)c1ccc(Nc2c3ccc(NC(=O)CCN4CCCC4)cc3nc3cc(NC(=O)CCN4CCCC4)ccc23)cc1", "0 (no)"],
  ["COc1cc(C2c3cc4c(cc3C(OC3OC5COC(C)OC5C(O)C3O)C3COC(=O)C23)OCO4)cc(OC)c1O (configuration not stated) + CN(C)c1ccc(Nc2c3ccc(NC(=O)CCN4CCCC4)cc3nc3cc(NC(=O)CCN4CCCC4)ccc23)cc1", "0 (no)"],
  ["COc1ncnc(C2CC2)c1-c1ncc2cnn(Cc3ccc(-c4nc(C(F)(F)F)cn4C(C)C)cc3)c2n1 + Cc1[nH]c2ccc(F)cc2c1-c1nc2c3cccnc3c3ncccc3c2[nH]1", "1 (yes)"],
  ["CC1COCCN1c1cc(C2(S(C)(=N)=O)CC2)nc(-c2ccnc3[nH]ccc23)n1 (configuration not stated) + CN(C)c1ccc(Nc2c3ccc(NC(=O)CCN4CCCC4)cc3nc3cc(NC(=O)CCN4CCCC4)ccc23)cc1", "0 (no)"],
  ["C#Cc1c(F)ccc2cc(O)cc(-c3ncc4c(N5CC6CCC(C5)N6)nc(OCC56CCCN5CC(F)C6)nc4c3F)c12 (configuration not stated) + Cc1[nH]c2ccc(F)cc2c1-c1nc2c3cccnc3c3ncccc3c2[nH]1", "0 (no)"],
  ["COc1cc(C2c3cc4c(cc3C(OC3OC5COC(C)OC5C(O)C3O)C3COC(=O)C23)OCO4)cc(OC)c1O (configuration not stated) + Cc1cnc(CNC(=O)c2c(=O)c3ccc(N4CCCN(C)CC4)nc3n3c2sc2ccccc23)cn1", "0 (no)"],
  ["C=CC(=O)N1CCN(c2nc(=O)n(-c3c(C)ccnc3C(C)C)c3nc(-c4c(O)cccc4F)c(F)cc23)C(C)C1 (configuration not stated) + Cc1cnc(CNC(=O)c2c(=O)c3ccc(N4CCCN(C)CC4)nc3n3c2sc2ccccc23)cn1", "0 (no)"],
  ["O=C(c1cc(Cc2n[nH]c(=O)c3ccccc23)ccc1F)N1CCN(C(=O)C2CC2)CC1 + Cc1cnc(CNC(=O)c2c(=O)c3ccc(N4CCCN(C)CC4)nc3n3c2sc2ccccc23)cn1", "0 (no)"],
  ["CC(=O)O[C@H]1C(=O)[C@@]2(C)[C@H]([C@H](OC(=O)c3ccccc3)[C@]3(O)C[C@H](OC(=O)[C@H](O)[C@@H](NC(=O)c4ccccc4)c4ccccc4)C(C)=C1C3(C)C)[C@]1(OC(C)=O)CO[C@@H]1C[C@@H]2O + Cc1cnc(CNC(=O)c2c(=O)c3ccc(N4CCCN(C)CC4)nc3n3c2sc2ccccc23)cn1", "1 (yes)"],
  ["O=c1[nH]cc(F)c(=O)[nH]1 + Cc1[nH]c2ccc(F)cc2c1-c1nc2c3cccnc3c3ncccc3c2[nH]1", "1 (yes)"],
  ["CCCS(=O)(=O)Nc1ccc(F)c(C(=O)c2c[nH]c3ncc(-c4ccc(Cl)cc4)cc23)c1F + Cc1cnc(CNC(=O)c2c(=O)c3ccc(N4CCCN(C)CC4)nc3n3c2sc2ccccc23)cn1", "1 (yes)"],
  ["CC1COCCN1c1cc(C2(O)CC3CCC(C2)O3)c2cnn(-c3ccn[nH]3)c2n1 (configuration not stated) + CN(C)c1ccc(Nc2c3ccc(NC(=O)CCN4CCCC4)cc3nc3cc(NC(=O)CCN4CCCC4)ccc23)cc1", "0 (no)"],
  ["CC(C)(O)C1CCC(Nc2ccc3ncc(-c4cccc(C(F)(F)F)c4)n3n2)CC1 (configuration not stated) + Cc1cnc(CNC(=O)c2c(=O)c3ccc(N4CCCN(C)CC4)nc3n3c2sc2ccccc23)cn1", "0 (no)"]
]}
